- Tested on: 60 cell line panel
- run description: NCI 60 cell line panel, whole panel
- test parameters: panel
Let's look at some molecules and their measured Range of Log10 TGI.
Give a plain numeric answer without units written out.

Guide cases for Range of Log10 TGI, answers given:
CC1CCC2C(C)C(CC(=O)c3cccc(C(=O)CC4OC5OC6(C)CCC7C(C)CCC(C4C)C57OO6)c3)OC3OC4(C)CCC1C32OO4 (stereo not shown) [Dimer 39] : 0.00
CC(=O)O[C@H]1C(=O)[C@@]2(C)[C@H]([C@H](OC(=O)c3ccccc3)[C@]3(O)C[C@H](OC(=O)[C@H](O)[C@@H](NC(=O)c4ccccc4)c4ccccc4)C(C)=C1C3(C)C)[C@]1(OC(C)=O)CO[C@@H]1C[C@@H]2O [Paclitaxel, reference compound] : 7.20
C[C@@H]1CC[C@H]2[C@@H](C)C(=O)O[C@@H]3O[C@@]4(C)CC[C@@H]1[C@]32OO4 [Artemisinin] : 0.06

Next up:
Data request: What value of Range of Log10 TGI has been reported for the following molecule? C[C@H]1[C@@H](F)O[C@@H]2O[C@@]3(C)CC[C@H]4[C@H](C)CC[C@@H]1[C@@]24OO3 [Compound VI, 10β-Fluoro-10-deoxoartemisinin]
Data returned: 1.56
